# pIC50 values compiled below
Test system: MCF 7 (human breast adenocarcinoma)
EXPERIMENTAL_DETAILS: MTT cytotoxicity assay, MCF 7
Assay type: cell-based
CONDITION_PARAMETERS: 72 h, mean ± SD
pIC50: −log10 of the molar value.
RECORDED_METRIC: pIC50

- COc1cc(-c2oc3cc(OC)c(OC)c(OC(C)=O)c3c(=O)c2OC)cc(OC)c1OC: 5.66
- COc1cc2oc(-c3ccc(O)cc3)c(OC)c(=O)c2c(O)c1OC: 5.66
